Test: qHTS RealTime-Glo MT Cell Viability Assay in HEK293 cells - 24 hour (AID 1224886); note: nearly all actives have a fitted effect of over 50% in size
Settings: RealTime-Glo luminescence; series mostly up to 76.8 µM
Results filed as inconclusive are left out. Calls of active or inactive are those of the source. Calls come from the whole dose curve; as a rule, active = well fitted cell-killing curve with a large enough effect in the repeat runs; inconclusive = weak or mixed curves, or effect the other way; inactive = flat fitted curve, though single readings scatter.
Return exactly one item of YES for active, NO for inactive

Name the outcome recorded for CCCCN(CCCC)CCC(O)c1cc2c(Cl)cc(Cl)cc2c2cc(C(F)(F)F)ccc12 (stereo unspecified) in the assay.
NO

Name the outcome recorded for CCCC(O)C(O)CO (stereo unspecified) in the assay.
NO

Name the outcome recorded for O=Cc1ccc(F)cc1 in the assay.
NO

Name the outcome recorded for CCCOc1sc(C(=O)N2CCC(c3cc(CN)ccc3F)CC2)c(C)c1Br in the assay.
YES

Name the outcome recorded for CCN=C1C=CC(=C(c2ccc(N(CC)CC)cc2)c2ccc(N(CC)CC)cc2)c2ccccc21 in the assay.
YES

Name the outcome recorded for COc1cccc(OC)c1O in the assay.
NO
